biological target: Human ALDH3A1 (Homo sapiens, UniProt P30838); assay: ALDH3A1 biochemical assay (benzaldehyde/NADP+, diaphorase-resazurin readout, 1,536-well); conditions: Table S5, biochemical
Sequence (P30838 whole entry): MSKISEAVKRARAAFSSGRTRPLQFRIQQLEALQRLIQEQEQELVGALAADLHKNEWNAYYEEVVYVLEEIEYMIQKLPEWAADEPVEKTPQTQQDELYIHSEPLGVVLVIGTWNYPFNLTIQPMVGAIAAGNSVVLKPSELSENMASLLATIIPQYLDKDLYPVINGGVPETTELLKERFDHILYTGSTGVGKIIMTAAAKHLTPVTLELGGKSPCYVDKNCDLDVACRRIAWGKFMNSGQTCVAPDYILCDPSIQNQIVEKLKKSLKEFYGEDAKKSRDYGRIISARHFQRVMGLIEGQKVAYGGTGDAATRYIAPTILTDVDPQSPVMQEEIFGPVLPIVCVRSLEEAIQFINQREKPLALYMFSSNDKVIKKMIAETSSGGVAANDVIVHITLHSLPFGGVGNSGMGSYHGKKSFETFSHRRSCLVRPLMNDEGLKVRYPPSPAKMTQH
assayEndpoint: Efficacy

1. CC1(C)Oc2ccc(CNC(=O)c3csc(N4CCN(c5cccc(C(F)(F)F)c5)CC4)n3)cc2O1; -96.99
2. CC(C)(O)c1ccc(CNC(=O)c2csc(N3CCN(c4cccc(C(F)(F)F)c4)CC3)n2)cc1; -74.78
3. O=C(NCc1ccc2c(c1)C(=O)NCC2)c1csc(N2CCN(c3cccc(C(F)(F)F)c3)CC2)n1; -60.58
4. O=C(NCc1cccc(N2CCC2=O)c1)c1csc(N2CCN(c3cccc(C(F)(F)F)c3)CC2)n1; -96.26
5. O=C(NCc1cccc(N2CCCC2=O)c1)c1csc(N2CCN(c3cccc(C(F)(F)F)c3)CC2)n1; -71.46
6. Cc1ccc(-c2cccc(CNC(=O)c3csc(N4CCN(c5cccc(C(F)(F)F)c5)CC4)n3)c2)cc1; -83.86

* * *

molecular target: UniProt P30838; assay: Cellular ALDEFLUOR assay in OE19 cells (preferential ALDH3A1 expression); conditions: Table S5, OE19 cells
assayEndpoint: Cell_Efficacy

1) Cc1ccc(CNC(=O)c2csc(N3CCN(c4cccc(C(F)(F)F)c4)CC3)n2)cc1F; -95.79
2) C[S+](=N)([O-])c1cccc(CNC(=O)c2csc(N3CCN(c4cccc(C(F)(F)F)c4)CC3)n2)c1 (stereo not drawn); -111.10
3) C[S+](=O)([O-])c1ccc(CNC(=O)c2csc(N3CCN(c4cccc(C(F)(F)F)c4)CC3)n2)cc1; -88.67

a. Cc1nc(-c2cccc(CNC(=O)c3csc(N4CCN(c5cccc(C(F)(F)F)c5)CC4)n3)c2)cs1
b. O=C(NCc1cccc(C(=O)N2CCCCC2)c1)c1csc(N2CCN(c3cccc(C(F)(F)F)c3)CC2)n1
Problem: Sorting by Cell_Efficacy in descending order, would a or b appear first? Output the label that corresponds to your choice.
Result: b

* * *

target: UniProt:P30838; assay: Cellular ALDEFLUOR assay in OE19 cells (preferential ALDH3A1 expression); conditions: Table S5, OE19 cells
assayEndpoint: Cell_Efficacy

1) Cc1cc(CNC(=O)c2csc(N3CCN(c4cccc(C(F)(F)F)c4)CC3)n2)cc(C)c1Br [NCGC01407759-01]; 0.00

1. NC(=O)c1csc(N2CCN(c3cccc(C(F)(F)F)c3)CC2)n1 [NCGC01407961-01]
2. O=C(NCc1ccc(-c2ccsc2)cc1)c1csc(N2CCN(c3cccc(C(F)(F)F)c3)CC2)n1 [NCGC01397331-01]
3. O=C(Nc1ccc(F)cc1)c1ccc(CNC(=O)c2csc(N3CCN(c4cccc(C(F)(F)F)c4)CC3)n2)cc1 [NCGC01407706-01]
Problem: Task field, ranking: reported Cell_Efficacy, descending order. API: response body holds the labels in the requested order.
Result: 3, 1, 2
(3: 0.00, 1: -38.73, 2: -82.49)

* * *

biological target: Human ALDH3A1 (Homo sapiens); assay: ALDH3A1 biochemical assay (benzaldehyde/NADP+, diaphorase-resazurin readout, 1,536-well); conditions: Table S1, primary screen; curve class
assayEndpoint: CC-v2

1) CNC(=O)c1cccc(-c2cnc(Nc3cncnc3)c3c2CCO3)c1; -2.2
2) COc1ccc(NC2CCCN(C(=O)c3cn(CCCN)nn3)C2)cc1 (stereo not shown); -1.2

P. COc1cccc(CNC(=O)CCNc2cnc3cnccn23)c1
Q. O=C(NCc1ccc(Cl)cc1)c1cc2n(n1)CC(c1ccc3c(c1)OCO3)OC2 (stereo not shown)
Problem: Could you check which of P and Q has a smaller value for CC-v2? Indicate which entry you chose by stating its label.
Result: P
(P: -2.2, Q: -1.4)
